Target system: GST-CIB1 : F-scrambled peptide (Homo sapiens, UniProt Q99828)
Construct: made in house; host or cells: BL-21 plus RIL cells (E. coli)
Sequence (Q99828 1-191): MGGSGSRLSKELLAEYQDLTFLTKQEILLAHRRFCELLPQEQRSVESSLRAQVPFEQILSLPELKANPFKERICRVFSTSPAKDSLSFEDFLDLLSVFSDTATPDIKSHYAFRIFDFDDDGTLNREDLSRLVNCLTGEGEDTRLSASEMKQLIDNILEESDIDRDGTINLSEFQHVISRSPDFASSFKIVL
Method notes: FP scrambled-peptide counter screen, 1536-well format
Type: binding
Experimental parameters: Table S3, counterscreen; negative = inhibition
Experimental endpoint: Efficacy (%) (counterscreen)
Provide the reading as a plain figure in %.

stdin: Item O=C(O)C(F)(F)F.O=C(O)c1ccc(Cc2c(-c3cccc(-c4ccccc4)c3)nn(-c3nc(C(=O)O)cs3)c2O)cc1 [NCGC00356639-01] has what recorded Efficacy (%) (counterscreen)?
stdout: -99

stdin: Similarly, O=C(O)C(F)(F)F.O=S(=O)(Nc1ccc(N2CCNCC2)cc1)c1ccc(NCc2ccc(Br)cc2O)cc1 [NCGC00343874-01] ?
stdout: -58

stdin: Similarly, CO[C@@H]1C(N(C)C(=O)c2ccccc2)C[C@H]2O[C@]1(C)n1c3ccccc3c3c4c(c5c6ccccc6n2c5c31)C(=O)NC4=O (stereo partly drawn) [NCGC00345083-01] ?
stdout: -150

###

Target system: GST-CIB1 : F-αIIb peptide (Homo sapiens)
Construct: made in house; host or cells: BL-21 plus RIL cells (E. coli)
Method notes: FP assay in the presence of glutathione (GSH), thiol reactivity
Format: binding
Experimental parameters: thiol reactivity call: No change / Active
Experimental endpoint: GSH Assay Result

Some compounds with known GSH Assay Result results, for comparison:
stdin: Item `O=C(c1cccs1)c1no[n+]([O-])c1C(=O)c1cccs1` has what recorded GSH Assay Result?
stdout: No change

stdin: Similarly, `COc1ccc(CNC(=O)c2nc(S(=O)(=O)Cc3ccccc3)ncc2Cl)cc1.O=C(O)C(F)(F)F` ?
stdout: No change

stdin: Similarly, Oc1ccc2ccccc2c1SSc1c(O)ccc2ccccc12 [NCGC00186047-02, IPA-3, reference compound] ?
stdout: No change

stdin: Similarly, `COc1cccc(-n2c(SCc3cc(=O)oc4cc(O)c(O)cc34)nc3ccccc3c2=O)c1.O=C(O)C(F)(F)F` ?
stdout: No change

stdin: Similarly, `COc1ccccc1C(=O)c1no[n+]([O-])c1C(=O)c1ccccc1OC.O=C(O)C(F)(F)F` ?
stdout: No change

stdin: Similarly, `O=C1C(I)=CC(=C(c2cc(I)c([O-])c(I)c2)c2ccccc2C(=O)[O-])C=C1I.[Na+].[Na+]` ?
stdout: No change

Others:
stdin: Item `CC(C)=CCC[C@]1(C)C=Cc2c(O)c3c(c(CC=C(C)C)c2O1)O[C@]12C(=C[C@@H]4CC1C(C)(C)O[C@@]2(C/C=C(/C)C(=O)O)C4=O)C3=O` has what recorded GSH Assay Result?
stdout: No change

###

Target system: CIB1 and αIIb interaction (CIB1-GST : F-αIIb peptide) (Homo sapiens)
Construct: made in house; host or cells: BL-21 plus RIL cells (E. coli)
Method notes: FP assay, 1536-well qHTS format (primary and confirmatory screen)
Format: binding
Experimental parameters: Table S3, confirmatory screen; read-out: IC50 [μM] (confirmatory screen)
Label Condition met when IC50 is strictly below 40 µM; otherwise label Condition not met.

stdin: Dear reviewer, please state whether O=C(O)C(F)(F)F.O=C1CCCC2=C1C(c1n[nH]cc1Cl)NC(Nc1nc3ccccc3o1)=N2 (stereo not drawn) has IC50 strictly beneath 40 µM.
stdout: Condition met

stdin: Similarly, `C[C@@H]1CC[C@]2(C)C3(C)CC[C@@]2(OC3=O)[C@@]12C[C@H](c1ccoc1)OC2=O` ?
stdout: Condition met

stdin: Similarly, `Cc1cc(NS(=O)(=O)c2ccc(NC(=O)Cc3cccc4ccccc34)cc2)no1.O=C(O)C(F)(F)F` ?
stdout: Condition met

stdin: Similarly, `COc1c(O)cccc1[C@H](O)C1CCN(CCc2ccc(F)cc2)CC1` ?
stdout: Condition not met

stdin: Similarly, `CNc1oc(-c2c[nH]c3ccccc23)nc1C#N.O=C(O)C(F)(F)F` ?
stdout: Condition met

stdin: Similarly, Nc1cccc2c1C(=O)N(C1CCC(=O)NC1=O)C2=O (stereo not drawn) ?
stdout: Condition not met

stdin: Similarly, `CCCCNC(=S)N/N=C1\C(=O)Nc2ccccc21.O=C(O)C(F)(F)F` ?
stdout: Condition not met

stdin: Similarly, CCC(C)Cn1c(O)cc2nn(-c3nc4ccccc4s3)c(=O)c-2c1C.O=C(O)C(F)(F)F (stereo not drawn) ?
stdout: Condition met

stdin: Similarly, `O=C(O)C(F)(F)F.O=C1Nc2ccccc2/C1=N/NC(=S)Nc1ccc(O)cc1` ?
stdout: Condition met

stdin: Similarly, `O=C(NC1=CC(=O)[C@H]2O[C@H]2C1=O)c1ccccc1O` ?
stdout: Condition not met
